system: BT-549; assay: Growth inhibition of human BT549 cells incubated for 48 hrs by sulforhodamine B assay; type: functional; settings: BT-549, 48 h, read-out: LC50 (the source's name)
assay metric: CC50 (µM)
Number in µM, nothing else.

In: Give CC50 for COc1cc2cc(Oc3ccc(NC(=O)Nc4ccc(Cl)c(Cl)c4)cc3)c(C)nc2cc1OC
Out: 51.6

In: Give CC50 for COc1cc2cc(Oc3ccc(NC(=O)Nc4ccc(Cl)c(C(F)(F)F)c4)cc3)c(C)nc2cc1OC
Out: 20.5

In: Give CC50 for COc1cc2cc(Oc3ccc(NC(=O)Nc4cc(C(F)(F)F)cc(C(F)(F)F)c4)cc3)c(C)nc2cc1OC
Out: 30.1

In: Give CC50 for COc1cc2cc(Oc3ccc(NC(=O)Nc4cccc(C(F)(F)F)c4)cc3)c(C)nc2cc1OC
Out: 28.2
